# target: SARS-CoV-2-S1 (RBD)-His protein (Trenzyme) (SARS-CoV-2, UniProt P0DTC2 319-541)
# protocol_summary: competition ELISA, RBD binding to coated ACE2
Known IC50 of a selection of binders
Use pM as the unit, but write only the number.

As a guide, the following entries are already answered.
- binder: "NI-607.532_F9 (antibody, V domains shown) VH: EVQLVESGGNLIQPGGSLRLSCAASGFTVSSNYMSWVRQAPGKGLEWVSVIYSGGSTYYADSVKGRFTISRDNSRNTLYLQMNSLRAEDTAVYFCARDRVVRGVRGNGMDVWGQGTTVTVSS VL: AIRMTQSPSSLSASVGDRVTITCQASQDINIYLNWYQQRPGKAPKLLIYDASNLETGVPSRFSGSGSGTDFTFTISSLQPEDIATYYCHQYDNLPRTFGQGTKVDIK"
  IC50 (pM): 775
- binder: "NI-607.532_C11 (antibody, V domains shown) VH: QVQLVESGGGLIQPGGSLRLSCAASGFTVSSNYMSWVRQAPGKGLEWVSVIYSGGSTYYADSVKGRFTISRDNSKNTLFLQMNSLRAEDTAVYYCARDLQYYGMDVWGQGTTVTVSS VL: DIQMTQSPSFLSASVGDRVTITCRASQGISSYLAWYQQKPGKAPKLLIYAASTLQSGVPSRFSGSGSGTEFTLTISSLQPEDFATYYCQQLDSYPPRDTFGQGTKVEIK"
  IC50 (pM): 826

// moving on: another record for IC50
Value of IC50 reported for the binder NI-607.429_E4 (antibody, V domains shown) VH: QVQLVESGGGLVQPGGSLRLSCAASGFTVSSNYMSWVRQAPGKGLEWVSVIYSGGSTFYADSVKGRFTISRDNSKNTLYLQMNSLRAEDTAVYYCARDLQESGMDVWGQGTTVTVSS VL: DIQLTQSPSSVSASVGDRVTITCRASQGISSWLAWYQQKPGKAPKLLIYAASSLQSGVPSRFSGSGSGTDFTLTISSLQPEDFATYYCQQANSFPTFGQGTRLEIK is 275
